Recorded values, source ChEMBL document CHEMBL1142718.

- assay_protocol: Inhibition of Calcium/calmodulin-dependent protein kinase type II in P19 cells
- Assay type: cell-based, Mus musculus
Reported log10(IC50) values for the following compounds.
On a log10 scale: recorded IC50, unit µM.

Answered cases to consult:
compound	log10(IC50)
CN(C)CCCn1nc(C2=C(c3cn(-c4csc5ccccc45)c4ccccc34)C(=O)NC2=O)c2ccccc21	0.75
CN(C)CCCn1nc(C2=C(c3cn(-c4cccnc4)c4ccccc34)C(=O)NC2=O)c2ccccc21	0.58
CN(C)CCCn1nc(C2=C(c3cn(-c4cccs4)c4ccccc34)C(=O)NC2=O)c2ccccc21	0.85
CN[C@@H]1C[C@H]2O[C@@](C)([C@@H]1OC)n1c3ccccc3c3c4c(c5c6ccccc6n2c5c31)C(=O)NC4 [STAUROSPORINE]	-2.22

## Task For CN(C)CCCn1nc(C2=C(c3cn(-c4ccc5ccccc5c4)c4ccccc34)C(=O)NC2=O)c2ccccc21 , what is its reported log10(IC50)?
## Result 0.79
